Experimental System: 1-deoxy-D-xylulose-5-phosphate synthase (Mycobacterium tuberculosis, UniProt P9WNS3)
Sequence (P9WNS3 whole entry): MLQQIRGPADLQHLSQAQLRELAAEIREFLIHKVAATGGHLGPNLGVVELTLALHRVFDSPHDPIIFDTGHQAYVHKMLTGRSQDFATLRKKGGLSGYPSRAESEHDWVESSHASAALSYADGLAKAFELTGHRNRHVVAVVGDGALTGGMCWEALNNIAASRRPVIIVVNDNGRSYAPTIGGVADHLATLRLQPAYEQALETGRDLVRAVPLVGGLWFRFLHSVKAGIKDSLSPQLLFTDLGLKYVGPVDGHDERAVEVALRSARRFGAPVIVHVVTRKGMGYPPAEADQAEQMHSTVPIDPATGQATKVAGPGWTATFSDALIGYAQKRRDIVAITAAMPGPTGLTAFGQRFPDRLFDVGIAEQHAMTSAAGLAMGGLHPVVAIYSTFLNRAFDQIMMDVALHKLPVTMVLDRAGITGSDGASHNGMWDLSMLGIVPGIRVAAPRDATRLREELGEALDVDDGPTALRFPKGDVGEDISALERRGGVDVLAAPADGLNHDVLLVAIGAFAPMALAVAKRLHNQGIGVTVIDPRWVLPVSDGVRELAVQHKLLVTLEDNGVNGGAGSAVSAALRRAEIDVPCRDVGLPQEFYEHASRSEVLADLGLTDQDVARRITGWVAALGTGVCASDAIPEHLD
Method: Inhibition of Mycobacterium tuberculosis cloned 1-deoxy-D-xylulose-5-phosphate synthase expressed in Escherichia coli
Reported pIC50 values follow for various compounds
pIC50 field: float, defined as -log10 of concentration (mol/L).

Query pIC50 on 1-deoxy-D-xylulose-5-phosphate synthase (Mycobacterium tuberculosis, UniProt P9WNS3) for "O=c1cc(Cc2ccccc2)[nH]c2c(-c3ccc(Cl)cc3)c(C(F)(F)F)nn12"
4.85

Query pIC50 on 1-deoxy-D-xylulose-5-phosphate synthase (Mycobacterium tuberculosis, UniProt P9WNS3) for "COc1ccc(-c2c(C(F)(F)F)nn3c(O)cc(-c4ccccc4)nc23)cc1"
4.69

Query pIC50 on 1-deoxy-D-xylulose-5-phosphate synthase (Mycobacterium tuberculosis, UniProt P9WNS3) for "Cc1nn2c(=O)cc(-c3ccccc3)[nH]c2c1-c1ccc(Cl)cc1"
4.47

Query pIC50 on 1-deoxy-D-xylulose-5-phosphate synthase (Mycobacterium tuberculosis, UniProt P9WNS3) for "COc1ccc(-c2cc(=O)n3nc(C)c(-c4ccc(F)cc4)c3[nH]2)cc1"
4.97

Query pIC50 on 1-deoxy-D-xylulose-5-phosphate synthase (Mycobacterium tuberculosis, UniProt P9WNS3) for "COc1ccc(-c2c(C)nn3c(=O)cc(-c4ccccc4)[nH]c23)cc1"
4.04

====

Experimental System: Transketolase (Homo sapiens, UniProt P29401)
Sequence (P29401 whole entry): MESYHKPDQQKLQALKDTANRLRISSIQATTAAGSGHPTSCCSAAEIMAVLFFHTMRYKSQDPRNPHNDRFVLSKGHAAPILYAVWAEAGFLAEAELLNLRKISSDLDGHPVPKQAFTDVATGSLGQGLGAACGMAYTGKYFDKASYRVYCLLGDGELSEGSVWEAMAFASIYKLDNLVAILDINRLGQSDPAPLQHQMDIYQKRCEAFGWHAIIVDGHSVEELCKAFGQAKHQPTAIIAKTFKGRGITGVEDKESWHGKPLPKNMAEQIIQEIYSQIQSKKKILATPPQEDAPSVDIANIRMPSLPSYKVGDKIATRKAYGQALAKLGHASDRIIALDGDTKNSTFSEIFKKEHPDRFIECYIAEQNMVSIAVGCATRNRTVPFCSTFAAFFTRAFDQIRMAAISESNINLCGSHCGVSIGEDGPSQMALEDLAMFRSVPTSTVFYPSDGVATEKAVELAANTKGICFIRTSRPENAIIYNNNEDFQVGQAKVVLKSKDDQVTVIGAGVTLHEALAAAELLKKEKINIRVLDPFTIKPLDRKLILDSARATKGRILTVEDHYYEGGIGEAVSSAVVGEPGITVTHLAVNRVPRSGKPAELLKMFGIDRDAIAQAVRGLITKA
Method: Inhibition of human recombinant transketolase expressed in Escherichia coli
Readout Name: pIC50
pIC50 field: float, defined as -log10 of concentration (mol/L).

Query pIC50 on Transketolase (Homo sapiens, UniProt P29401) for "O=c1cc(Cc2ccccc2)[nH]c2c(-c3ccc(Cl)cc3)cnn12"
5.41

====

Measured pIC50 (1-deoxy-D-xylulose-5-phosphate synthase (Mycobacterium tuberculosis, UniProt P9WNS3))
pIC50 field: float, defined as -log10 of concentration (mol/L).

Query pIC50 on 1-deoxy-D-xylulose-5-phosphate synthase (Mycobacterium tuberculosis, UniProt P9WNS3) for "Oc1cc(-c2ccccc2)nc2c(-c3ccccc3)c(C(F)(F)F)nn12"
4.64

Query pIC50 on 1-deoxy-D-xylulose-5-phosphate synthase (Mycobacterium tuberculosis, UniProt P9WNS3) for "COc1ccc(-c2cc(=O)n3nc(C)c(-c4ccc(OC)cc4)c3[nH]2)cc1"
4.37

Query pIC50 on 1-deoxy-D-xylulose-5-phosphate synthase (Mycobacterium tuberculosis, UniProt P9WNS3) for "Cc1nn2c(=O)cc(-c3ccc4ccccc4c3)[nH]c2c1-c1ccccc1"
4.71

Query pIC50 on 1-deoxy-D-xylulose-5-phosphate synthase (Mycobacterium tuberculosis, UniProt P9WNS3) for "O=c1cc(Cc2ccccc2)[nH]c2c(-c3ccccc3)c(C(F)(F)F)nn12"
4.15

Query pIC50 on 1-deoxy-D-xylulose-5-phosphate synthase (Mycobacterium tuberculosis, UniProt P9WNS3) for "Cc1nn2c(=O)cc(CSc3ccc(Cl)cc3)[nH]c2c1-c1ccc(Cl)cc1"
4.38

Query pIC50 on 1-deoxy-D-xylulose-5-phosphate synthase (Mycobacterium tuberculosis, UniProt P9WNS3) for "O=c1cc(Cc2ccccc2)[nH]c2c(-c3ccc(Cl)cc3)cnn12"
3.94

Query pIC50 on 1-deoxy-D-xylulose-5-phosphate synthase (Mycobacterium tuberculosis, UniProt P9WNS3) for "CCc1nn2c(=O)cc(-c3ccc(OC)cc3)[nH]c2c1-c1ccc(Cl)cc1"
4.71

====

Test system: Vero
Method: Cytotoxicity against african green monkey Vero cells
Format: cell-based
Experimental Setup: Chlorocebus sabaeus
Reported IC50 values follow for various compounds
All answers are understood in µM, so give the number only.

Solved entries (count: 3):
> print(dat)
                              record.smiles  readout.name  numeric.result
1  Cc1nn2c(=O)cc(-c3ccccc3)[nH]c2c1-c1ccc(Cl)cc1          IC50            39.5
2  COc1ccc(-c2cc(=O)n3nc(C)c(-c4ccc(F)cc4)c3[nH]2)cc1          IC50            35.6
3  COc1ccc(-c2cc(=O)n3nc(C)c(-c4ccc(OC)cc4)c3[nH]2)cc1          IC50            80.9

Query IC50 on Vero for "COc1ccc(-c2cc(=O)n3nc(C)c(-c4ccc(Cl)cc4)c3[nH]2)cc1"
16

====

Test system: Mycobacterium tuberculosis
Method: Antituberculosis activity against Mycobacterium tuberculosis
Format: functional
Readout Name: MIC (µM)
All answers are understood in µM, so give the number only.

Solved entries (count: 3):
> print(dat)
                              record.smiles  readout.name  numeric.result
1  COc1ccc(-c2cc(=O)n3nc(C)c(-c4ccc(Cl)cc4)c3[nH]2)cc1           MIC             7.6
2  Cc1nn2c(=O)cc(-c3ccccc3)[nH]c2c1-c1ccc(Cl)cc1           MIC            14.2
3  COc1ccc(-c2cc(=O)n3nc(C)c(-c4ccc(OC)cc4)c3[nH]2)cc1           MIC            61.8

Moving on to another compound below.
Query MIC on Mycobacterium tuberculosis for "COc1ccc(-c2cc(=O)n3nc(C)c(-c4ccc(F)cc4)c3[nH]2)cc1"
7.7

====

Experimental System: UniProtKB P9WNS3
Method: Inhibition of Mycobacterium tuberculosis cloned 1-deoxy-D-xylulose-5-phosphate synthase expressed in Escherichia coli
Readout Name: pIC50
pIC50 field: float, defined as -log10 of concentration (mol/L).

> print(dat)
                              record.smiles  numeric.result
1  Cc1nn2c(=O)cc(CSc3ccc(Cl)cc3)[nH]c2c1-c1ccccc1            4.20
2  Cc1cc(=O)n2nc(C(F)(F)F)c(-c3ccc(Cl)cc3)c2[nH]1            4.01

State the recorded pIC50 for this entry: "Cc1nn2c(=O)cc(-c3ccccc3)[nH]c2c1-c1ccccc1"
4.51

State the recorded pIC50 for this entry: "COC(=O)Cc1cc(=O)n2nc(C(F)(F)F)c(-c3ccc(Br)cc3)c2[nH]1"
4.14

====

Experimental System: 1-deoxy-D-xylulose-5-phosphate synthase (Mycobacterium tuberculosis, UniProt P9WNS3)
Method: Inhibition of Mycobacterium tuberculosis cloned 1-deoxy-D-xylulose-5-phosphate synthase expressed in Escherichia coli
Readout Name: pIC50
pIC50 field: float, defined as -log10 of concentration (mol/L).

> print(dat)
                              record.smiles  numeric.result
1  COc1ccccc1-c1cc(=O)n2nc(C)c(-c3ccc(Br)cc3)c2[nH]1            4.27
2  COc1ccc(-c2cc(=O)n3nc(C)c(-c4ccc(Cl)cc4)c3[nH]2)cc1            4.96

Moving on to another compound below.
State the recorded pIC50 for this entry: "Cc1nn2c(=O)cc(CSc3nnnn3-c3ccccc3)[nH]c2c1-c1ccc(Cl)cc1"
4.26
